assayedSystem: human PCSK9 / human LDLR EGFa domain interaction (Homo sapiens, UniProt Q8NBP7)
Sequence (Q8NBP7 153-692): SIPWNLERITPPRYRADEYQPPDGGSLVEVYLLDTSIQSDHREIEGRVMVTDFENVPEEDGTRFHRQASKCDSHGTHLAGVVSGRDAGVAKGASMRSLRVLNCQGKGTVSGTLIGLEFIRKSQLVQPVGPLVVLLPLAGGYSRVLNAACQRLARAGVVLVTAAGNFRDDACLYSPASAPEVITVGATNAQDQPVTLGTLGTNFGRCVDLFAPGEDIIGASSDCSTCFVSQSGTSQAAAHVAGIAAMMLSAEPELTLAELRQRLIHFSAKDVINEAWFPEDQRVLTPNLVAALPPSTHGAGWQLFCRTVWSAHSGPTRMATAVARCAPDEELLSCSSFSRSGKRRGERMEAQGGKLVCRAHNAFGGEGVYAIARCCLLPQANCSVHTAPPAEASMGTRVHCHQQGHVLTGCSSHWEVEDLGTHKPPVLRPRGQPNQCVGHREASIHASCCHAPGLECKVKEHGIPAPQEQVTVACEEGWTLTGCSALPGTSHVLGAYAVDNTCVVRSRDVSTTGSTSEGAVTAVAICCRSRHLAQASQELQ
Sequence (Q8NBP7 31-152 partner limits assumed): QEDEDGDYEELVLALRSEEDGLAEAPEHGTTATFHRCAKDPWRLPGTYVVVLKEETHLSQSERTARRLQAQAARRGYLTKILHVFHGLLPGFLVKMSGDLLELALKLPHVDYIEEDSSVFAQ
assayProcedure: TR-FRET assay of inhibition of the PCSK9-LDLR protein-protein interaction
condition: 20 nM biotinylated human PCSK9 + 20 nM his-tagged human LDLR EGFa domain, 2 hours room temperature
*1 amine or outer side, *2 acyl side, *3 side chain or, on linkers, in order; H or OH if unused. Where a SMILES comes first, the peptide text is derived from it. Bridges are numbered along the chain shown (N, C = ends). [ ]: non-standard residue; d: D form. Trp(βS-Me) = C[C@@H](c1c[nH]c2ccccc12)[C@H](N)C(=O)O; Trp(7-aza) = N[C@@H](Cc1c[nH]c2ncccc12)C(=O)O; mXylylene = c1cc(C[*:1])cc(C[*:2])c1; Chg = N[C@H](C(=O)O)C1CCCCC1; Tle = CC(C)(C)[C@H](N)C(=O)O; hSer = N[C@@H](CCO)C(=O)O; Nva = CCC[C@H](N)C(=O)O; Mpa = O=C(O)CCS
Each entry below lists one item and its recorded IC50 value.

Some entries whose results are on file:
CCC[C@@H]1NC(=O)[C@H](Cc2c[nH]c3ncccc23)NC(=O)[C@H]([C@@H](C)O)NC(=O)[C@H](Cc2cnc[nH]2)NC(=O)[C@H](Cc2ccc(O)cc2)NC(=O)[C@H](C(C)(C)C)NC(=O)CCSCc2cccc(c2)CSC[C@H](C(N)=O)NC(=O)[C@H]([C@@H](C)O)NC(=O)[C@H](C2CCCCC2)NC(=O)[C@H](Cc2ccc(O)cc2)NC(=O)[C@H](CCC(=O)O)NC1=O [Compound 043] ([Mpa][Tle]YHT[Trp(7-aza)][Nva]EY[Chg]T[dC]-NH2; linker 1-12 via mXylylene) | 100 to 1000 nM
CCC[C@@H]1NC(=O)[C@H](Cc2c[nH]c3ncccc23)NC(=O)[C@H]([C@@H](C)O)NC(=O)[C@H](Cc2cnc[nH]2)NC(=O)[C@H](Cc2ccc(O)cc2)NC(=O)[C@H]([C@@H](C)c2c[nH]c3ccccc23)NC(=O)CCSCc2cccc(c2)CSC[C@@H](C(N)=O)NC(=O)[C@H]([C@@H](C)O)NC(=O)[C@H](CCC)NC(=O)[C@H](Cc2ccc(O)cc2)NC(=O)[C@H](CCC(=O)O)NC1=O [Compound 097] ([Mpa][Trp(βS-Me)]YHT[Trp(7-aza)][Nva]EY[Nva]TC-NH2; linker 1-12 via mXylylene) | 1 to 100 nM

Please find the next compound below.
Prompt: // query IC50 value for entry CCC[C@@H]1NC(=O)[C@H](Cc2c[nH]c3ncccc23)NC(=O)[C@H]([C@@H](C)O)NC(=O)[C@H](Cc2cnc[nH]2)NC(=O)[C@H](Cc2ccc(O)cc2)NC(=O)[C@H](C(C)(C)C)NC(=O)CCSCc2cccc(c2)CSC[C@@H](C(N)=O)NC(=O)[C@H]([C@@H](C)O)NC(=O)[C@H](CCO)NC(=O)[C@H](Cc2ccc(O)cc2)NC(=O)[C@H](CCC(=O)O)NC1=O [Compound 072] ([Mpa][Tle]YHT[Trp(7-aza)][Nva]EY[hSer]TC-NH2; linker 1-12 via mXylylene)
Response: 100 to 1000 nM

====

assayedSystem: PCSK9 (Homo sapiens, UniProt Q8NBP7)
Construct: biotin (biotinylated)
assayProcedure: PCSK9 Alexa FRET Standard assay (displacement of AlexaFluor647-tagged cyclic peptide Reagent A)
Type: binding
condition: 0.5 nM PCSK9, 20 nM AF cyclic peptide Reagent A
*1 amine or outer side, *2 acyl side, *3 side chain or, on linkers, in order; H or OH if unused. Where a SMILES comes first, the peptide text is derived from it. Bridges are numbered along the chain shown (N, C = ends). [ ]: non-standard residue; d: D form. The star is where a group is joined. ξ: configuration not given here. Trp(7-aza) = N[C@@H](Cc1c[nH]c2ncccc12)C(=O)O; pY = N[C@@H](Cc1ccc(OP(=O)(O)O)cc1)C(=O)O; X2 = O=C(CCSCc1cccc(CSCCN[*:1])c1)[*:2]; pT = C[C@@H](OP(=O)(O)O)[C@H](N)C(=O)O; 1Nal = N[C@@H](Cc1cccc2ccccc12)C(=O)O; mXylylene = c1cc(C[*:1])cc(C[*:2])c1; aThr = C[C@H](O)[C@H](N)C(=O)O; αMeOrn = C[C@](N)(CCCN)C(=O)O; Tle = CC(C)(C)[C@H](N)C(=O)O; αMeV = CC(C)[C@](C)(N)C(=O)O; Nva = CCC[C@H](N)C(=O)O; ξαMeS = CC(N)(CO)C(=O)O; Aib = CC(C)(N)C(=O)O; Mpa = O=C(O)CCS; X5 = COCC*
valueType: IC50

CC(=O)N[C@H]1CSCc2cccc(c2)CSC[C@H](C(N)=O)NC(=O)[C@H]([C@H](C)O)NC(=O)[C@](C)(C(C)C)NC(=O)[C@H](Cc2ccc(OP(=O)(O)O)cc2)NC(=O)[C@H](C)NC(=O)C(C)(C)NC(=O)[C@H](Cc2c[nH]c3ncccc23)NC(=O)[C@H]([C@@H](C)O)NC(=O)[C@@H]2CCCN2C(=O)[C@H](Cc2ccc(O)cc2)NC(=O)[C@H](C(C)(C)C)NC1=O [Compound 039] (Ac-C[Tle]YPT[Trp(7-aza)][Aib]A[pY][αMeV][aThr][dC]-NH2; linker 1-12 via mXylylene) | 100 to 1000 nM
COCCOCC1(C)NC(=O)[C@H](Cc2c[nH]c3ncccc23)NC(=O)[C@H]([C@@H](C)O)NC(=O)[C@@H]2CCCN2C(=O)[C@H](Cc2ccc(O)cc2)NC(=O)[C@H](C(C)(C)C)NC(=O)[C@@H](NC(C)=O)CSCc2cccc(c2)CSC[C@H](C(N)=O)NC(=O)[C@H]([C@@H](C)O)NC(=O)[C@](C)(C(C)C)NC(=O)[C@H](Cc2ccc(O)cc2)NC(=O)[C@H](C)NC1=O (stereo partly drawn) [Compound 036] (Ac-C[Tle]YPT[Trp(7-aza)][ξαMeS](X5)AY[αMeV]T[dC]-NH2; linker 1-12 via mXylylene) | 1 to 100 nM
CC(C)[C@]1(C)NC(=O)[C@H](Cc2ccc(O)cc2)NC(=O)[C@H](C)NC(=O)C(C)(C)NC(=O)[C@H](Cc2c[nH]c3ncccc23)NC(=O)[C@H]([C@@H](C)O)NC(=O)[C@@H]2CCCN2C(=O)[C@H](Cc2ccc(O)cc2)NC(=O)[C@H](C(C)(C)C)NC(=O)CCSCc2cccc(c2)CSC[C@@H](C(N)=O)NC(=O)[C@H](CCCCN)NC1=O [Compound 019] ([Mpa][Tle]YPT[Trp(7-aza)][Aib]AY[αMeV]KC-NH2; linker 1-12 via mXylylene) | 1000 to 12100 nM
CC(C)[C@]1(C)NC(=O)[C@H](Cc2ccc(O)cc2)NC(=O)[C@H](C)NC(=O)C(C)(C)NC(=O)[C@H](Cc2c[nH]c3ncccc23)NC(=O)[C@H]([C@@H](C)O)NC(=O)[C@@H]2CCCN2C(=O)[C@H](Cc2ccc(O)cc2)NC(=O)[C@H](C(C)(C)C)NC(=O)CCSCc2cccc(c2)CSC[C@@H](C(N)=O)NC(=O)[C@H](CO)NC1=O [Compound 018] ([Mpa][Tle]YPT[Trp(7-aza)][Aib]AY[αMeV]SC-NH2; linker 1-12 via mXylylene) | 1 to 100 nM

Prompt: // query IC50 value for entry CCC[C@@H]1NC(=O)[C@H](Cc2cccc3ccccc23)NC(=O)[C@H]([C@@H](C)O)NC(=O)[C@@H]2CCCN2C(=O)[C@H](Cc2ccccc2)NC(=O)[C@H](C(C)C)NC(=O)CCSCc2cccc(c2)CSCCNC(=O)[C@H](C)NC(=O)[C@](C)(C(C)C)NC(=O)[C@H](Cc2ccccc2)NC(=O)[C@H](C)NC1=O [Compound 022] (cyclo([1Nal][Nva]AF[αMeV]A[X2]VFPT))
Response: 1 to 100 nM

Prompt: Next record, please: CC(=O)N[C@H]1CSCc2cccc(c2)CSC[C@H](C(N)=O)NC(=O)[C@H]([C@@H](C)O)NC(=O)[C@](C)(C(C)C)NC(=O)[C@H](Cc2ccc(O)cc2)NC(=O)[C@H](C)NC(=O)[C@](C)(CCCN)NC(=O)[C@H](Cc2c[nH]c3ncccc23)NC(=O)[C@H]([C@@H](C)O)NC(=O)[C@@H]2CCCN2C(=O)[C@H](Cc2ccc(O)cc2)NC(=O)[C@H](C(C)(C)C)NC1=O [Compound 033] (Ac-C[Tle]YPT[Trp(7-aza)][αMeOrn]AY[αMeV]T[dC]-NH2; linker 1-12 via mXylylene)
Response: 1 to 100 nM

Prompt: Next record, please: CC(C)[C@]1(C)NC(=O)[C@H](Cc2ccc(O)cc2)NC(=O)[C@H](C)NC(=O)C(C)(C)NC(=O)[C@H](Cc2c[nH]c3ncccc23)NC(=O)[C@H]([C@@H](C)O)NC(=O)[C@@H]2CCCN2C(=O)[C@H](Cc2ccc(O)cc2)NC(=O)[C@H](C(C)(C)C)NC(=O)CCSCc2cccc(c2)CSC[C@@H](C(N)=O)NC(=O)[C@H]([C@@H](C)OP(=O)(O)O)NC1=O [Compound 015] ([Mpa][Tle]YPT[Trp(7-aza)][Aib]AY[αMeV][pT]C-NH2; linker 1-12 via mXylylene)
Response: 1 to 100 nM

Prompt: Next record, please: CC(C)[C@]1(C)NC(=O)[C@H](Cc2ccc(O)cc2)NC(=O)[C@H](CCC(=O)O)NC(=O)C(C)(C)NC(=O)[C@H](Cc2c[nH]c3ncccc23)NC(=O)[C@H]([C@@H](C)O)NC(=O)[C@@H]2CCCN2C(=O)[C@H](Cc2ccc(O)cc2)NC(=O)[C@H](C(C)(C)C)NC(=O)CCSCc2cccc(c2)CSC[C@@H](C(N)=O)NC(=O)[C@H]([C@H](C)O)NC1=O [Compound 020] ([Mpa][Tle]YPT[Trp(7-aza)][Aib]EY[αMeV][aThr]C-NH2; linker 1-12 via mXylylene)
Response: 1000 to 12100 nM

Prompt: Next record, please: CC(C)[C@@H]1NC(=O)CCSCc2cccc(c2)CSCCNC(=O)[C@H](C)NC(=O)[C@](C)(C(C)C)NC(=O)[C@H](Cc2ccccc2)NC(=O)[C@H](C)NC(=O)C(C)(C)NC(=O)[C@H](Cc2cccc3ccccc23)NC(=O)[C@H]([C@@H](C)O)NC(=O)[C@@H]2CCCN2C(=O)[C@H](Cc2ccccc2)NC1=O [Compound 021] (cyclo([1Nal][Aib]AF[αMeV]A[X2]VFPT))
Response: 1 to 100 nM
